Test system: CCRF-CEM leukemia
Experiment: NCI-60 one-dose screen, 48 h (100 = growth as untreated, 0 = no growth, -100 = all killed)
Conditions: 10 µM
The panel holds about 83,000 compounds, 20% with a hit somewhere; the sample as a whole holds those more often.
Label YES when growth < 30%; otherwise NO.

Compound	Group Label
FC(F)(F)c1ccc2nc(-c3nc(-c4ccccc4)n4ccccc34)[nH]c2c1	NO
NC(=O)c1ccc(-c2cccc3c(=O)nc(N4CCOCC4)oc23)cc1	NO
Cc1cccc2c(NCCN(C)C)c3cccc(C(=O)NCCN(C)C)c3nc12	YES
CCCCN(CCCC)CCCCCCCCC(O)c1cc2ccccc2c2ccccc12 (configuration not stated)	NO
COc1ccc2c(c1)N(CCO)C1=C(C(=O)OC1)C2c1ccc(OC)c(OC)c1 (configuration not stated)	NO
COc1ccc2c(c1)sc1nc(-c3ccccc3)c(-c3ccc(O)c(OC)c3)n12	NO
COc1cc(Cl)cc(-c2nn(-c3cccc(NC(=O)Nc4ccc(Cl)c(Cl)c4)c3)cc2-c2ccncc2)c1	YES

###

// values below are reported growth
Tested on: NCI/ADR-RES ovarian
Assay: NCI-60 one-dose screen, 48 h (100 = growth as untreated, 0 = no growth, -100 = all killed)
Settings: 10 µM
Description: Growth inhibition of the NCI/ADR-RES human […] tumor cell line is measured as a screen for anti-cancer activity. Cells are grown in 96 well plates and exposed to the test compound for 48 hours. Compounds are tested at a single concentration, which is 10^-5 M for most compounds. The reported endpoint is percent growth (GI% or GIPRCNT), where numbers from 0 - 100% represent growth inhibition, and numbers from -100% - 0 represent cell death. For example, a value of 40 represents 60% growth inhibition. […]
This is part of a sample that, as a whole, favours compounds with a hit. Of some 83,000 tested, about 20% had one in any assay.
Value Type: growth (%)

Smiles Representation	Units	Measured Result
CC(C)(C)c1ccc(N2CSC(=S)N(c3ccc(C(C)(C)C)cc3)C2)cc1	%	96.1
CC(C)(Cl)CCC1=C(Cl)C(=O)c2ccccc2C1=O	%	62.9
CCn1cc(C(=O)O)c(=O)c2cnc(N3CCCC3)nc21	%	102
CNc1ncc(-c2ccc(C(F)(F)F)cc2)c(NC2CCCCCC2)n1	%	65.2

###

# growth per entry
Test system: U251 CNS
Assay: NCI-60 one-dose screen, 48 h (100 = growth as untreated, 0 = no growth, -100 = all killed)
Details: 10 µM
Experimental: Growth inhibition of the U251 human tumor cell line is measured as a screen for anti-cancer activity. Cells are grown in 96 well plates and exposed to the test compound for 48 hours. Compounds are tested at a single concentration, which is 10^-5 M for most compounds. The reported endpoint is percent growth (GI% or GIPRCNT), where numbers from 0 - 100% represent growth inhibition, and numbers from -100% - 0 represent cell death. For example, a value of 40 represents 60% growth inhibition. […]
This is part of a sample that, as a whole, favours compounds with a hit. Of some 83,000 tested, about 20% had one in any assay.
Value Type: growth (%)

Molecule	Value Type	Units	Measured Result
Nc1c(C(=O)Nc2cccc(F)c2)sc2nc3c(cc12)C(=O)CCC3	growth	%	32.1
N#CCCN(NC(=O)OCc1ccccc1)C(=O)OCc1ccccc1	growth	%	102
CC(=O)c1cc(Br)ccc1O	growth	%	108
COc1ccc(/C=C/C(C)=N/OCC(=O)O)cc1	growth	%	95.2
Cc1c(Cl)cccc1NC(=O)c1sc2nc3c(cc2c1N)C(=O)CCC3	growth	%	7.51
O=C(C[n+]1ccccc1)c1ccc2ccccc2c1	growth	%	95.3
O=C1/C(=C\c2ccc(Cl)cc2)CN(C(=S)Nc2ccccc2)C/C1=C\c1ccc(Cl)cc1	growth	%	-97.7
Oc1[nH]c2ccc(Cl)cc2c1/C=c1/ccc2c(c1)N=C(c1cccs1)N=2	growth	%	61.3
COc1ccc2c(c1)N(CCO)C1=C(C(=O)OC1)C2c1ccc(OC)c(OC)c1 (stereo not drawn)	growth	%	34.5
C#Cc1ccc(-n2c(/C=C/c3ccc(C(F)(F)F)cc3)nc3ncccc3c2=O)cc1	growth	%	39.2
COc1cc2c(cc1OC)N(CCO)C1=C(C(=O)OC1)C2c1ccc(Cl)c(Cl)c1 (stereo not drawn)	growth	%	96.8
C=C(Cl)[C@@](Cl)(CBr)CC[C@@H](Br)C(C)(C)Cl	growth	%	-97.9
COc1cc(Cl)cc(-c2nn(-c3cccc(NC(=O)Nc4ccc(Cl)c(Cl)c4)c3)cc2-c2ccncc2)c1	growth	%	3.01
O=C1/C(=C\c2ccc(Br)cc2)CN(C(=O)c2ccccc2F)C/C1=C\c1ccc(Br)cc1	growth	%	-66.6
COc1cc(CNc2ccccc2C(=O)N2CCN(C(=O)c3cc(-c4cc(OC)c(OC)c(OC)c4)n4nc(-c5ccccc5)cc4n3)CC2)cc(OC)c1OC	growth	%	35.2
COc1ccc(-c2cc(-c3cccc(NS(C)(=O)=O)c3)nc(N)c2C#N)cc1	growth	%	28.5
Cc1ccc(C(=O)N2C/C(=C/c3ccccc3)C(=O)/C(=C/c3ccccc3)C2)cc1	growth	%	47
COc1cc(-c2nc(Nc3nc4ccccc4s3)[nH]c(=O)c2C#N)cc(OC)c1O	growth	%	105
O=C1NC(=O)N(Cc2ccccc2)CC1Br (stereo not drawn)	growth	%	59.6
O=C1OCC2=C1C(c1cccc(Cl)c1)c1cc3c(cc1N2CCO)OCO3 (stereo not drawn)	growth	%	17.1
COc1ccc(/C=C/C(=O)Nc2ccc(-c3nc4ccc(OC)cc4s3)cc2)cc1	growth	%	109
c1ccc(CSc2nnc3c4c5c(sc4nc(-c4cccnc4)n23)CCCCCC5)cc1	growth	%	16.8
CCCCCCNC(=O)Oc1ccc(/C(=C(/CC)Cc2ccccc2)c2ccc(OCCN3CCCCC3)cc2)cc1	growth	%	69.3
CCN(CC)CCSCCN(CC)CC	growth	%	91.7
CC(C)=NNc1ncnc2c1ncn2C1OC(CO)C(O)C1O (stereo not drawn)	growth	%	29.1
CCCCN(CCCC)c1cc(C(=O)CCCCCN)c2ccccc2n1	growth	%	-77.9
COc1ccc(Nc2ccnc(NCCNc3ccnc4cc(Cl)ccc34)n2)cc1	growth	%	59.1
CC(=O)N1N=C(c2ccc(Cl)cc2)CC1c1sc(Cl)nc1Cl (stereo not drawn)	growth	%	71.2
